# system tested: Solute carrier organic anion transporter family member 1B1 (Homo sapiens, UniProt Q9Y6L6)
# Sequence (Q9Y6L6 whole entry): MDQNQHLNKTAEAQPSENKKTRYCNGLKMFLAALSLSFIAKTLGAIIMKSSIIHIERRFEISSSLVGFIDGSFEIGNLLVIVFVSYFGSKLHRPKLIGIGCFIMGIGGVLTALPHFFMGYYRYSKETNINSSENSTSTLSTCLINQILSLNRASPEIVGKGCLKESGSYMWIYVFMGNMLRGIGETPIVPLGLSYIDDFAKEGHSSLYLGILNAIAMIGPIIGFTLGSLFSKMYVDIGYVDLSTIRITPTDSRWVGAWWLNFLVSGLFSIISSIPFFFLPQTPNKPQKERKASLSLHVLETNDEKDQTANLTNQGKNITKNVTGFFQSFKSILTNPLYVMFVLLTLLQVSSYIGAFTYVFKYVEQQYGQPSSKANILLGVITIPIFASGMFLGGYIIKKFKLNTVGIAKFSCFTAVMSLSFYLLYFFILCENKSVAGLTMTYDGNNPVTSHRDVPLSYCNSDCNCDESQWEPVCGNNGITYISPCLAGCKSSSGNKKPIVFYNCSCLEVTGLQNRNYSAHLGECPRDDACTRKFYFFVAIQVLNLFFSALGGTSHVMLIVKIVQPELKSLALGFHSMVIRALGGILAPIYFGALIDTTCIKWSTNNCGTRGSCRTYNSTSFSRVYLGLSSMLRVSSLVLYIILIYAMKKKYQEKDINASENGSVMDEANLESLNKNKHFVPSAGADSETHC
# method notes: Inhibition of human liver OATP1B1 expressed in HEK293 Flp-In cells assessed as reduction in E17-betaG uptake at 20 uM by scintillation counting
# conditions: hek293, 20 µM
*1 amine or outer side, *2 acyl side, *3 side chain or, on linkers, in order; H or OH if unused. Where a SMILES comes first, the peptide text is derived from it. Bridges are numbered along the chain shown (N, C = ends). [ ]: non-standard residue; d: D form. Trp(2-yl) = O=C([C@H](Cc1c([*:3])[nH]c2ccccc12)N[*:1])[*:2]; Leu(4R-OH,5-OH) = C[C@](O)(CO)C[C@H](N)C(=O)O; cisHyp = O=C(O)[C@@H]1C[C@H](O)CN1
recorded metric: INH
A bare number is not enough; add the unit after it.

compound	system tested	INH
CO[C@H]1/C=C/O[C@@]2(C)Oc3c(C)c(O)c4c(O)c(c(/C=N/N5CCN(C)CC5)c(O)c4c3C2=O)NC(=O)/C(C)=C\C=C\[C@H](C)[C@H](O)[C@@H](C)[C@@H](O)[C@@H](C)[C@H](OC(C)=O)[C@@H]1C	Solute carrier organic anion transporter family member 1B1 (Homo sapiens, UniProt Q9Y6L6)	88.3%
O=c1oc2cc(O)ccc2c2oc3cc(O)ccc3c12	Solute carrier organic anion transporter family member 1B1 (Homo sapiens, UniProt Q9Y6L6)	73.2%
C[C@@H]1NC(=O)[C@H](C[C@@](C)(O)CO)NC(=O)[C@@H]2Cc3c([nH]c4ccccc34)SC[C@H](NC(=O)[C@@H]([C@H](C)O)NC1=O)C(=O)N1C[C@@H](O)C[C@H]1C(=O)N[C@@H](C)C(=O)N2 [PHALLOIDIN] (cyclo(A[dT]C[cisHyp]A[Trp(2-yl)][Leu(4R-OH,5-OH)]); thioether 3-6)	Solute carrier organic anion transporter family member 1B1 (Homo sapiens, UniProt Q9Y6L6)	26.1%
CC[N+](CC)(CC)CC	Solute carrier organic anion transporter family member 1B1 (Homo sapiens, UniProt Q9Y6L6)	25.9%
CC1=C(C(=O)O)N2C(=O)[C@@H](NC(=O)[C@H](N)c3ccc(O)cc3)[C@H]2SC1	Solute carrier organic anion transporter family member 1B1 (Homo sapiens, UniProt Q9Y6L6)	9.4%
Cc1cccc(C)c1OCC(=O)N[C@@H](Cc1ccccc1)[C@@H](O)C[C@H](Cc1ccccc1)NC(=O)[C@H](C(C)C)N1CCCNC1=O	Solute carrier organic anion transporter family member 1B1 (Homo sapiens, UniProt Q9Y6L6)	85.8%

Next item in the queue.
Read off the recorded INH for CN(C)CCCN1c2ccccc2Sc2ccc(Cl)cc21
27.1%
